Taken from patent US10646477B1.

- assay.name: Aqueous solubility
- Assay type: physicochemical
- conditions.used: water; at 3° C.
measured.property: solubility (mg/mL)
Numbers only, in mg/mL.

The recorded solubility for entry O=C1CSC(=O)N1 equals 30

* * *

- assay.name: CellTiter-Glo toxicity (CC50), U of Alabama / NIH
- conditions.used: HSV-2 line; tested at A (U of Alabama)
measured.property: CC50

The recorded CC50 for entry CN(C)C(=N)NC(=N)N.O=C1CSC(=O)N1 equals > 150 µM

* * *

- Test system: Vero cell monolayers
- assay.name: Gross visible toxicity (CC50), 48 hour continuous treatment, LSU
- Format: cell-based
- conditions.used: HSV-1 line; tested at L (LSU-HSC)
measured.property: CC50 (mM)
Numbers only, in mM.

The recorded CC50 for entry NC1=NC(=O)CS1 equals 19.4

* * *

- assay.name: CellTiter-Glo toxicity (CC50), U of Alabama / NIH
- conditions.used: CC50, HSV-1 line; tested at A (U of Alabama)
measured.property: CC50

Example compounds with recorded CC50:
N=C1NC(=O)C(c2ccccc2Cl)S1 (centres unmarked) [JIVA-0046] | > 150 µM
N=C(N)SC(C(=O)O)c1ccccc1 (centres unmarked) [JIVA-0045] | > 150 µM

Look at each compound and report its CC50.
1. O=C1CSC(=O)N1 [JIVA-0042, 2,4-Thiazolidinedione]
2. CC1SC(=N)NC1=O (centres unmarked) [JIVA-0044, RS-2-Imino-5-methylthiazolidine-4-one]
3. N=C(N)SC(F)C(=O)O (centres unmarked) [JIVA-0043]

[out]
1. > 150 µM
2. > 150 µM
3. > 150 µM

* * *

- Tested on: HSV-1
- assay.name: CellTiter-Glo (Cytopathic effect/Toxicity) antiviral assay, U of Alabama / NIH
- Type: cell-based, Herpes simplex virus type 1
- conditions.used: Human alphaherpesvirus 1
measured.property: EC50

Form field EC50 for item O=C1CSC(=O)N1 on HSV-1: > 150 µM

* * *

- assay.name: CellTiter-Glo toxicity (CC50), U of Alabama / NIH
- conditions.used: HSV-1 line; tested at N (NIH)
measured.property: CC50

The recorded CC50 for entry CN(C)C(=N)NC(=N)N.N=C1NC(=O)CS1 [JIVA-0049, Pseudothiohydantain Metforminate] equals > 300 µM

* * *

- assay.name: Gross visible toxicity (CC50), 48 hour continuous treatment, LSU
- Type: cell-based
- conditions.used: African green monkey, Vero cell monolayers, HSV-1 line; tested at L (LSU-HSC)
Please respond with reported CC50 at 48 h for every item in the list.

N=C1NC(=O)C(c2ccccc2Cl)S1 (centres unmarked) | ~1 mM
O=C1CSC(=O)N1 | > 14 mM
N=C(N)SC(F)C(=O)O (centres unmarked) | ~1 mM

Look at each compound and report its CC50 at 48 h.
1. N=C(N)SC(C(=O)O)c1ccccc1 (centres unmarked)
2. CC1SC(=N)NC1=O (centres unmarked)

[out]
1. 3.6 mM
2. > 39 mM

* * *

- assay.name: Gross visible toxicity (CC50), 48 hour continuous treatment, LSU
- Type: cell-based
- conditions.used: African green monkey, Vero cell monolayers, HSV-2 line; tested at L (LSU-HSC)
Please respond with reported CC50 at 48 h for every item in the list.

Example molecules with recorded CC50 at 48 h:
CC1SC(=N)NC1=O (centres unmarked) [JIVA-0044, RS-2-Imino-5-methylthiazolidine-4-one] | > 39 mM
O=C1CSC(=O)N1 [JIVA-0042, 2,4-Thiazolidinedione] | > 14 mM

Look at each molecule and report its CC50 at 48 h.
1. N=C1NC(=O)C(c2ccccc2Cl)S1 (centres unmarked) [JIVA-0046]
2. N=C(N)SC(F)C(=O)O (centres unmarked) [JIVA-0043]
3. N=C(N)SC(C(=O)O)c1ccccc1 (centres unmarked) [JIVA-0045]

[out]
["~1 mM", "> 1 mM", "3.6 mM"]
